# target_system: human B1R (Homo sapiens, UniProt P46663)
# Construct: expressed in transfected cells; host or cells: CHO K1 cells
# Sequence (P46663 1-353): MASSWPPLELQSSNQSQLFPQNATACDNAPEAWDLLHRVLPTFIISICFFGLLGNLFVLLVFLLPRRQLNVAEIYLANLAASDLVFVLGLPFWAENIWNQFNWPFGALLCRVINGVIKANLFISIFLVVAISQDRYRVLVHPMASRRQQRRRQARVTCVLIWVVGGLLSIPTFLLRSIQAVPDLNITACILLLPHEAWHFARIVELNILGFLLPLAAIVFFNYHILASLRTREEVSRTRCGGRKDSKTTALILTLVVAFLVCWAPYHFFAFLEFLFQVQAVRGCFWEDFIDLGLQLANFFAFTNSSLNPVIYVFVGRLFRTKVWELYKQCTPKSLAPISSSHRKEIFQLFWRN
# measurement_notes: Functional investigation on the bradykinin receptor 1 (B1R), FLIPR Ca2+ assay, hB1R cells
# Assay type: cell-based
# test_settings: % inhibition human B1R at 10 μM; CHO K1 cells transfected with human B1R; agonist Lys-Des-Arg9 bradykinin at EC80; read-out: % Inh. (hum. B1R) 10 μM
assay_readout: inhibition at 10 µM (%)
Write down the numeric answer in % and omit the unit.

Reported inhibition at 10 µM of COc1cc(C)c(S(=O)(=O)N(CCOCC(=O)N2CCC3(CC2)CCC(c2cccs2)(N(C)C)CC3)C2CC2)c(C)c1 [CC-12] : 100

Further cases:
// inhibition at 10 µM value for Cc1cccc(Cl)c1S(=O)(=O)N1CCCCC1COCC(=O)N1CCC2(CC1)CCC(c1cccs1)(N(C)C)CC2 (centres unmarked) [CC-13] : 100

Noted for Cc1cccc(Cl)c1S(=O)(=O)N(CCOCC(=O)N1CCC2(CC1)CCC(c1cccs1)(N(C)C)CC2)C1CC1 [CC-09] : its inhibition at 10 µM reads 100

In plain terms, COc1cc(C)c(S(=O)(=O)N2CCCCC2CCCC(=O)N2CCC3(CC2)CCC(c2ccccc2)(N(C)C)CC3)c(C)c1 (centres unmarked) [Compound 8] has a documented inhibition at 10 µM of 98
